These entries and their values trace back to patent US20230416329A1.

Biological target: bovine trypsin (Bos taurus)
Sequence (P00760 24-246): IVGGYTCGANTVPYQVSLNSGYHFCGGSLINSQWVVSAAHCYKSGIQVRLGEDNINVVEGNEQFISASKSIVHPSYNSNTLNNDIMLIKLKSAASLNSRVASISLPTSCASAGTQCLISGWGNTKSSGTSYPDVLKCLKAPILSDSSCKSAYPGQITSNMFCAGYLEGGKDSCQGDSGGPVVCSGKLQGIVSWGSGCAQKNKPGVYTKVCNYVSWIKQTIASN
Experiment: Trypsin inhibitory activity of peptides (BApNA hydrolysis, OD405; IC50, Ki, residual activity)
Format: biochemical
Conditions: trypsin 50 nM, BApNA 1.22 mM; read-out: IC50
Bridge positions count the residues as written; N and C are the ends. Peptide text beside a SMILES is read from it.
recorded-endpoint: pIC50
Numbers only, as −log10 of the molar value.

Would you mind giving pIC50 for every molecule in the list below?
1. CC[C@H](C)[C@@H]1NC(=O)[C@@H]2CCCN2C(=O)[C@@H]2CCCN2C(=O)[C@H]([C@@H](C)CC)NC(=O)[C@H](CO)NC(=O)[C@H](CCCCN)NC(=O)[C@H]([C@@H](C)O)NC(=O)[C@H](C)NC(=O)[C@H](CCCNC(=N)N)NC(=O)[C@H](C(C)C)NC(=O)[C@@H](N)CSSC[C@@H](C(=O)N[C@@H](Cc2ccccc2)C(=O)O)NC1=O [BT71] (H-CVRATKSIPPICF-OH; disulfide 1-12; N-terminus and C-terminus assumed)
2. CC[C@H](C)[C@@H]1NC(=O)[C@@H]2CCCN2C(=O)[C@@H]2CCCN2C(=O)[C@H]([C@@H](C)CC)NC(=O)[C@H](CO)NC(=O)[C@H](CCCCN)NC(=O)[C@H]([C@@H](C)O)NC(=O)[C@H](Cc2c[nH]c3ccccc23)NC(=O)[C@H](CCCNC(=N)N)NC(=O)CNC(=O)[C@@H](N)CSSC[C@@H](C(=O)N[C@@H](Cc2ccccc2)C(=O)O)NC1=O [BT57] (H-CGRWTKSIPPICF-OH; disulfide 1-12; C-terminus assumed)
3. CC[C@H](C)[C@@H]1NC(=O)[C@@H]2CCCN2C(=O)[C@@H]2CCCN2C(=O)[C@H]([C@@H](C)CC)NC(=O)[C@H](CO)NC(=O)[C@H](CCCCN)NC(=O)[C@H]([C@@H](C)O)NC(=O)[C@H](C)NC(=O)[C@H](CCCNC(=N)N)NC(=O)[C@H](CCC(=O)O)NC(=O)[C@@H](N)CSSC[C@@H](C(=O)N[C@@H](Cc2ccccc2)C(=O)O)NC1=O [BT78] (H-CERATKSIPPICF-OH; disulfide 1-12; N-terminus and C-terminus assumed)

6.96
6.89
7.52

----------
Give measured Residual trypsin activity for each item. Keep answers brief.
Biological target: bovine trypsin (Bos taurus, UniProt P00760)
Assay: Trypsin inhibitory activity of peptides (BApNA hydrolysis, OD405; IC50, Ki, residual activity)
Format: biochemical
Conditions: peptide 0.00098 μM
Bridge positions count the residues as written; N and C are the ends. Peptide text beside a SMILES is read from it.
Numbers only, in %.

Batch request: Residual trypsin activity for each of the following molecules.
1. CC[C@H](C)[C@@H]1NC(=O)[C@@H]2CCCN2C(=O)[C@@H]2CCCN2C(=O)[C@H]([C@@H](C)CC)NC(=O)[C@H](CO)NC(=O)[C@H](CCCCN)NC(=O)[C@H]([C@@H](C)O)NC(=O)[C@H](C)NC(=O)[C@H](CCCNC(=N)N)NC(=O)[C@H](C)NC(=O)[C@@H](N)CSSC[C@@H](C(=O)N[C@@H](Cc2ccccc2)C(=O)O)NC1=O [BT67] (H-CARATKSIPPICF-OH; disulfide 1-12)
2. CC[C@H](C)[C@@H]1NC(=O)[C@@H]2CCCN2C(=O)[C@@H]2CCCN2C(=O)[C@H]([C@@H](C)CC)NC(=O)[C@H](CO)NC(=O)[C@H](CCCCN)NC(=O)[C@H]([C@@H](C)O)NC(=O)[C@H](Cc2ccc(O)cc2)NC(=O)[C@H](CCCNC(=N)N)NC(=O)CNC(=O)[C@@H](N)CSSC[C@@H](C(=O)N[C@@H](Cc2ccccc2)C(=O)O)NC1=O [BT53] (H-CGRYTKSIPPICF-OH; disulfide 1-12; C-terminus assumed)
3. CC[C@H](C)[C@@H]1NC(=O)[C@@H]2CCCN2C(=O)[C@@H]2CCCN2C(=O)[C@H]([C@@H](C)CC)NC(=O)[C@H](C)NC(=O)[C@H](CCCCN)NC(=O)[C@H]([C@@H](C)O)NC(=O)[C@H](C)NC(=O)[C@H](CCCNC(=N)N)NC(=O)CNC(=O)[C@@H](N)CSSC[C@@H](C(=O)N[C@@H](Cc2ccccc2)C(=O)O)NC1=O [BT27] (H-CGRATKAIPPICF-OH; disulfide 1-12; C-terminus assumed)
4. CC[C@H](C)[C@@H]1NC(=O)[C@@H]2CCCN2C(=O)[C@@H]2CCCN2C(=O)[C@H]([C@@H](C)CC)NC(=O)[C@H](CO)NC(=O)[C@H](CCCNC(=N)N)NC(=O)[C@H]([C@@H](C)O)NC(=O)[C@H](C)NC(=O)[C@H](CCCNC(=N)N)NC(=O)CNC(=O)[C@@H](N)CSSC[C@@H](C(=O)N[C@@H](Cc2ccccc2)C(=O)O)NC1=O [BT17] (H-CGRATRSIPPICF-OH; disulfide 1-12; C-terminus assumed)
5. CC[C@H](C)[C@@H]1NC(=O)[C@@H]2CCCN2C(=O)[C@@H]2CCCN2C(=O)[C@H]([C@@H](C)CC)NC(=O)[C@H](CO)NC(=O)[C@H](CCCCN)NC(=O)[C@H]([C@@H](C)O)NC(=O)[C@H](CCC(N)=O)NC(=O)[C@H](CCCNC(=N)N)NC(=O)CNC(=O)[C@@H](N)CSSC[C@@H](C(=O)N[C@@H](Cc2ccccc2)C(=O)O)NC1=O [BT54] (H-CGRQTKSIPPICF-OH; disulfide 1-12; C-terminus assumed)

104.4
108.9
98.9
97.9
99.2

----------
Biological target: bovine trypsin (Bos taurus)
Assay: Trypsin inhibitory activity of peptides (BApNA hydrolysis, OD405; IC50, Ki, residual activity)
Format: biochemical
Details: peptide 0.0780 μM
Bridge positions count the residues as written; N and C are the ends. Square brackets hold non-standard residues; d marks the D form. Peptide text beside a SMILES is read from it. Nle = CCCC[C@H](N)C(=O)O
recorded-endpoint: Residual trypsin activity (%)
Numbers only, in %.

Worked examples follow.
CC[C@H](C)[C@@H]1NC(=O)[C@@H]2CCCN2C(=O)[C@@H]2CCCN2C(=O)[C@H]([C@@H](C)CC)NC(=O)[C@H](CO)NC(=O)[C@H](CCCCN)NC(=O)[C@H]([C@@H](C)O)NC(=O)[C@H](CO)NC(=O)[C@H](CCCNC(=N)N)NC(=O)CNC(=O)[C@@H](N)CSSC[C@@H](C(=O)N[C@@H](Cc2ccccc2)C(=O)O)NC1=O [BT47] (H-CGRSTKSIPPICF-OH; disulfide 1-12; C-terminus assumed) : 39.0
CC[C@H](C)[C@@H]1NC(=O)[C@@H]2CCCN2C(=O)[C@@H]2CCCN2C(=O)[C@H]([C@@H](C)CC)NC(=O)[C@H](CO)NC(=O)[C@H](CCCCN)NC(=O)[C@H]([C@@H](C)O)NC(=O)[C@H](CCC(N)=O)NC(=O)[C@H](CCCNC(=N)N)NC(=O)CNC(=O)[C@@H](N)CSSC[C@@H](C(=O)N[C@@H](Cc2ccccc2)C(=O)O)NC1=O [BT54] (H-CGRQTKSIPPICF-OH; disulfide 1-12; C-terminus assumed) : 24.3
CC[C@H](C)[C@@H]1NC(=O)[C@@H]2CCCN2C(=O)[C@@H]2CCCN2C(=O)[C@H]([C@@H](C)CC)NC(=O)[C@H](CO)NC(=O)[C@H](CCCCN)NC(=O)[C@H]([C@@H](C)O)NC(=O)[C@H](C)NC(=O)[C@H](CCCNC(=N)N)NC(=O)[C@@H]2CCCN2C(=O)[C@@H](N)CSSC[C@@H](C(=O)N[C@@H](Cc2ccccc2)C(=O)O)NC1=O [BT66] (H-CPRATKSIPPICF-OH; disulfide 1-12; C-terminus assumed) : 13.9

Now take the following molecule into account.
Need Residual trypsin activity of CCCC[C@@H]1NC(=O)[C@H](CCCNC(=N)N)NC(=O)CNC(=O)[C@@H](N)CSSC[C@@H](C(=O)N[C@@H](Cc2ccccc2)C(=O)O)NC(=O)[C@H]([C@@H](C)CC)NC(=O)[C@@H]2CCCN2C(=O)[C@@H]2CCCN2C(=O)[C@H]([C@@H](C)CC)NC(=O)[C@H](CO)NC(=O)[C@H](CCCCN)NC(=O)[C@H]([C@@H](C)O)NC1=O [BT50] (H-CGR[Nle]TKSIPPICF-OH; disulfide 1-12; C-terminus assumed) , thanks. 48.9
